- STUDY_TARGET: recombinant human KLK5 (human) (UniProt Q9Y337)
- Sequence (Q9Y337 67-293): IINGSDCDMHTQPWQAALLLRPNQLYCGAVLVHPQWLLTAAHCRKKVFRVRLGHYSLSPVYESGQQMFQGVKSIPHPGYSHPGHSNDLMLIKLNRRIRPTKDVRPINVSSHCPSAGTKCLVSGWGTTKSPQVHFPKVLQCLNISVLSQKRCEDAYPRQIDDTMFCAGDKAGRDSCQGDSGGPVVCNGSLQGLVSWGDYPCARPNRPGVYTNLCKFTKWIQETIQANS
- ASSAY_REMARKS: direct activity assay, 5 nM KLK5, Boc-VPR-AMC
Would you mind telling me the reported pIC50 of each entry?
Answers are plain numbers, as −log10 of the molar value.

10H3 (antibody, V domains shown) VH: QSVKESEGGLIKPTDTLTLTCTVSGFSLSTFAINWVRQAPGNGLEWIGAIGRGGSAYYASWAKSRSTITKNTNLNTVTLKMTRPTAADTATYFCARENAGSGWGELDIWGPGTLVTVSS VL: AYEMTQTPASVEVAVGGTVTINCQASESISSDLAWYQQKPGQRPKLLIYAASTLASGVPSRFKGSGSGTEFTLSISGVQCADAATYYCQQGYTWNNVDNVFGGGTEVVVK = 8.96
10C8 (antibody, V domains shown) VH: QSVKESEGGLFKPTDNLTLTCTVSGFSLSSYGVSWVRQAPGNGLEYIGFIGSGGFAYYASWAKSRSTITRNTNLNTVTLKMTSLTAADTATYFCARDDVGGGRSLDIWGPGTVVTVSS VL: NIVMTQTPASVEVAMGGTVIIKCQASQSISTYLSWYQQKPGQPPKLLIYSASTLASGVSSRFEGSGSGTQFTLTISGVQCADAATYYCHQDYTSNNVDNTFGGGTEVVVK = 9.05
8F5 (antibody, V domains shown) VH: QSVKESEGGLFKPTDTLTLTCTVSGFSLSSYPISWVRQAPGNGLEWIGYITSEYGVAYYATWAESRSTITRNTNLNTVTLKMTSLTAADTATYFCVRENPTYGYAYDAWGPGTLVTVSS VL: AYDLTQTPASVEAAVGGTVTINCQASESIGNELSWYQQKSGQPPKLLIYQASTLASGVPSRFKGSGSGTDFTLTISDLECADAATYYCAQGFSSSGVENVFGGGTEVVVK = 8.94

// below: pIC50 requested for another binder
Name the reported pIC50 value associated with the binder 10C5 (antibody, V domains shown) VH: QSLEESGGGLVKPTDTLTLTCTVSGFSLSSYGVTWVRQAPGRGLEWIGYITSNYGVSYYASWAKSRSTITRNTNLNTVTLKMTSLTAADTATYFCARENPDYGYAYDAWGPGTLVTVSV VL: AYDMTQTPASLEAAVGGTVTINCQASESISNELSWYQQKPGQPPDLLIYYASTLASGVPSRFKGSGSGTEFTLTISDLECADAATYYCAQGFGSSGVENVFGGGTEVVVK
9.01
